target: AMPA receptor (human GluR1 flip/stargazin expressed in CHO-K1 cells) (Homo sapiens); construct: expressed in transfected cells; host or cells: CHO-K1; experiment: AMPA receptor function enhancing activity using calcium influx as index; type: cell-based; settings: test compound 30 μM with 3 mM glutamic acid, change in fluorescence level in 3 min, 100% = 3 mM glutamic acid + 300 μM cyclothiazide, 0% = 3 mM glutamic acid only
Sequence (P42261 19-906 isoform P42261-2 limits assumed): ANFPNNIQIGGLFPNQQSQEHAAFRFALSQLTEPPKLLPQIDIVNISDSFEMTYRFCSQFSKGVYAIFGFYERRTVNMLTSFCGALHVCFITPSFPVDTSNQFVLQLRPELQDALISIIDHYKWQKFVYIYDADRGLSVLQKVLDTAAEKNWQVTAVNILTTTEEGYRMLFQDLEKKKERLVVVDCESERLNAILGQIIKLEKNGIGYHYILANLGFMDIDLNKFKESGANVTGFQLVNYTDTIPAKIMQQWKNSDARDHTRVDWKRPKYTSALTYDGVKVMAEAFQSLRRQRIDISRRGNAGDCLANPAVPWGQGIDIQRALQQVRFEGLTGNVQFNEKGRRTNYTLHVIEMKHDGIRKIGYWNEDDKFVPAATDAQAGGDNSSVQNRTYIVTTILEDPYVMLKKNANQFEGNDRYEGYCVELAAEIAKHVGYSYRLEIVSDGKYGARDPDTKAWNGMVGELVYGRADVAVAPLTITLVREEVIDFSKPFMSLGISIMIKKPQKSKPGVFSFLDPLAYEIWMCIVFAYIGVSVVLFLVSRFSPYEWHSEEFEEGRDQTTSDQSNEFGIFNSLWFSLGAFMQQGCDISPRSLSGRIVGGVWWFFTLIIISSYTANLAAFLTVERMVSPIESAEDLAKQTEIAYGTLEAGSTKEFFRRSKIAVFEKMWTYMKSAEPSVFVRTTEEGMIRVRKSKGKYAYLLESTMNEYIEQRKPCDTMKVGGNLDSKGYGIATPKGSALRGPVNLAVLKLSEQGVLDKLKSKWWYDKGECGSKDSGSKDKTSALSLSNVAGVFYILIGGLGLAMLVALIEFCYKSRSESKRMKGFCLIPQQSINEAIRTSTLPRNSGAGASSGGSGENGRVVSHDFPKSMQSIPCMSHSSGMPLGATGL
Sequence (Q9Y698 whole entry partner): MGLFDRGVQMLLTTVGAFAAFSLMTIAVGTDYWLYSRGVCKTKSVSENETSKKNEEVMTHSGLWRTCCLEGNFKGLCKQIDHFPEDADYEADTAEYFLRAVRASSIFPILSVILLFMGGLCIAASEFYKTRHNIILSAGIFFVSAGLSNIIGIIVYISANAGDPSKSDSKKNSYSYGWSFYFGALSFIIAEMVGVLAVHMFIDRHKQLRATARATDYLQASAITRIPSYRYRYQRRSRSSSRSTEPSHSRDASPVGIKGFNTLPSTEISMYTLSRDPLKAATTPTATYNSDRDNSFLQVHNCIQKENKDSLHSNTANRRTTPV
Dear colleague, classification is by activity (%), with ranges listed here: lower bin (below 70%), middle bin (70% to below 80%), upper bin (80% or more)

[ask] Categorize the following entry: CC(F)(F)c1cccc(Oc2ccc(C3=CC=CN4CCS(=O)(=O)N=C34)cc2)c1 [Example 156]
[reply] upper bin

[ask] Next record, please: O=S1(=O)CCN2CCCC(c3ccc(Oc4ccc(Cl)c(Cl)c4)cc3)C2=N1 (centres unmarked) [Example 151]
[reply] lower bin

[ask] Next record, please: O=S1(=O)CCN2C=C(F)C=C(c3ccc(Oc4ccccc4)cc3)C2=N1 [Example 206]
[reply] upper bin

[ask] Next record, please: Cc1cc(F)cc(Oc2ccc([C@@H]3CCCN4CCS(=O)(=O)N=C34)cc2)c1 [Example 236]
[reply] middle bin

[ask] Next record, please: CC(F)(F)c1ccc(C2CCCN3CCS(=O)(=O)N=C23)cc1 (centres unmarked) [Example 230]
[reply] lower bin

---

target: AMPA receptor (human GluR1 flip/stargazin expressed in CHO-K1 cells) (Homo sapiens); construct: expressed in transfected cells; host or cells: CHO-K1; test: AMPA receptor function enhancing activity using calcium influx as index; assay type: cell-based; conditions: test compound 30 μM with glutamic acid final 3 mM, change in fluorescence in 3 min, 100% = 3 mM glutamic acid + 300 μM cyclothiazide, 0% = 3 mM glutamic acid only
For each entry below, report its activity (%) value.
Give a bare numeral; the unit % is implied.

[ask] Which activity (%) is listed for O=S1(=O)CCN2CCCC(c3ccc(Oc4ccc(F)cc4)cc3)C2=N1 (stereo not drawn) ?
[reply] 77

[ask] Next record, please: CCC(CC)Oc1ccc(C2=CC=CN3CCS(=O)(=O)N=C23)cc1
[reply] 80

[ask] Next record, please: CC(C)c1ccc(C#CC2=CC=CN3CCS(=O)(=O)N=C23)cc1
[reply] 87

[ask] Next record, please: O=S1(=O)CCN2C=CC=C(c3ccc4ccccc4c3)C2=N1
[reply] 80

[ask] Next record, please: Cc1cc(Oc2ccc(C3=CC=CN4CCS(=O)(=O)N=C34)cc2)ccc1F
[reply] 58

[ask] Next record, please: O=S1(=O)CCN2C=CC=C(c3ccc(-c4ccccc4)cc3)C2=N1
[reply] 78

[ask] Next record, please: COc1ccc2ccc(OC3=CC=CN4CCS(=O)(=O)N=C34)cc2c1
[reply] 72

[ask] Next record, please: O=S1(=O)CCN2C=CC=C(c3ccc(OC4CCCCCC4)cc3)C2=N1
[reply] 75

[ask] Next record, please: O=S1(=O)CCN2C=C(F)C=C(c3ccc(OC4CCCCC4)cc3)C2=N1
[reply] 85

[ask] Next record, please: CCc1cccc(Oc2ccc(C3=CC=CN4CCS(=O)(=O)N=C34)cc2)c1
[reply] 69

[ask] Next record, please: COc1cccc(Oc2ccc(C3=CC=CN4CCS(=O)(=O)N=C34)cc2)c1
[reply] 78

[ask] Next record, please: Cc1ccc(C2=CC=CN3CCS(=O)(=O)N=C23)cc1F
[reply] 80

[ask] Next record, please: O=C(c1ccccc1)c1ccc(C2=CC=CN3CCS(=O)(=O)N=C23)cc1
[reply] 99

[ask] Next record, please: O=S1(=O)CCN2C=CC=C(c3ccc(OCC4CCOCC4)cc3)C2=N1
[reply] 71

[ask] Next record, please: Cc1cc(C2=CC=CN3CCS(=O)(=O)N=C23)ccc1-c1ccccc1
[reply] 84

[ask] Next record, please: CC1CC(c2ccc(Oc3ccccc3)cc2)C2=NS(=O)(=O)CCN2C1 (stereo not drawn)
[reply] 73

[ask] Next record, please: Cc1cc(Oc2ccc(C3CCCN4CCS(=O)(=O)N=C34)cc2)ccc1F (stereo not drawn) [Example 112]
[reply] 79

[ask] Next record, please: O=S1(=O)CCN2CCCC(c3ccc(-c4ccccc4)cc3)C2=N1 (stereo not drawn) [Example 65]
[reply] 78
